experiment: Half life in CD-1 mouse at 1 mg/kg, iv measured for 5 mins by LC-MS/MS analysis; assay type: ADME, organism-based; conditions: CD-1, mouse, in vivo
endpoint-label: half-life (min)

> print(dat)
                                   compound  endpoint.label  quantitative.readout
1  CNS(=O)(=O)c1ccc(Nc2ncc3ccc(C(=O)N4C[C@@H](C#N)[C@@H]4C)nc3n2)c(F)c1       half-life                  21.6
2  CNS(=O)(=O)c1ccc(Nc2ncc3ccc(C(=O)N4C[C@@H](OC)[C@@H]4C)nc3n2)c(F)c1       half-life                  19.8
